system: XF498; test: NCI tumour cell line growth inhibition, 48 h
The source made the active and inactive calls. No stated cut-off is given here; in the data, active = GI50 up to about 1.1 µM and inactive = higher.
So I've got a bunch of compounds here, and I need their GI50 values.

Please give the measured GI50 for this compound: O=c1cc(-c2ccccc2F)[nH]c2cc3c(cc12)OCO3
1.5 µM (inactive)

Please give the measured GI50 for this compound: Cc1cc(C)nc(NS(=O)(=O)c2ccc(NC(=O)c3cccc4c(Nc5ccc(S(=O)(=O)Nc6cc(C)on6)cc5)c5ccccc5nc34)cc2)n1
21.1 µM (inactive)

Please give the measured GI50 for this compound: O=C1O[C@H](c2ccccc2)[C@@H]2CC3(CCN12)OCCO3
> 100 µM (inactive)

Please give the measured GI50 for this compound: ON(Cc1ccccc1)C(=S)c1ccccc1
> 41.7 µM (inactive)

Please give the measured GI50 for this compound: CC(C)(O)[C@@H]1CC[C@@]2(C)CCCC(O)C2(O)C1 (stereo partly specified)
> 100 µM (inactive)

Please give the measured GI50 for this compound: Nc1ncnc2c1ncn2C1C(O)C=C(CO)C1O (stereo unspecified)
< 0.0625 µM (active)

====

So I've got a bunch of compounds here, and I need their GI50 values.
test system: A498; test: NCI tumour cell line growth inhibition, 48 h
Calls of active or inactive are those of the source. No stated cut-off is given here; in the data, active = GI50 up to about 1.1 µM and inactive = higher.

Please give the measured GI50 for this compound: O=C(Nc1ccccc1)Oc1ccccc1C1CCCCC1
30.6 µM (inactive)

Please give the measured GI50 for this compound: O=C(O)C1C2CC3CC2CC31 (stereo not drawn)
> 100 µM (inactive)

Please give the measured GI50 for this compound: O=c1oc2ccc(-n3c(=O)c4ccccc4c4ccccc4c3=O)cc2c2ccccc12
> 100 µM (inactive)

Please give the measured GI50 for this compound: CC1(Br)S(=O)(=O)OCCOS1(=O)=O
> 100 µM (inactive)

Please give the measured GI50 for this compound: O=[N+]([O-])c1ccc(/C=N/C23CC4CC(CC(C4)C2)C3)cc1
> 100 µM (inactive)

Please give the measured GI50 for this compound: CCN1CCCC(C#N)(c2ccccc2)CC1 (stereo not drawn)
> 100 µM (inactive)

Please give the measured GI50 for this compound: O=C(Nc1ccc(Cl)c(Cl)c1)C(=O)C(C(=O)c1ccccc1F)C1OC(=O)c2ccccc21 (stereo not drawn)
37.8 µM (inactive)

Please give the measured GI50 for this compound: CNC(Cc1ccccc1)c1cccc(OC)c1O (stereo not drawn)
> 100 µM (inactive)

Please give the measured GI50 for this compound: C/C(=N\NC(=O)c1ccc(Cl)cc1)c1nc2cccnc2[nH]1
43.8 µM (inactive)

Please give the measured GI50 for this compound: COc1cc2oc(-c3ccc4c(c3)OCO4)c(OC)c(=O)c2c(O)c1OC
> 50 µM (inactive)

Please give the measured GI50 for this compound: COc1ccc(/C=C/c2nnc(S)[nH]2)cc1OC
> 100 µM (inactive)

Please give the measured GI50 for this compound: CC1OC(OC2C(Oc3cc(O)c4c(c3)O[C@H](c3ccc(O)cc3)CC4=O)OC(CO)C(O)C2O)C(O)C(O)C1O (stereo partly drawn)
> 100 µM (inactive)

Please give the measured GI50 for this compound: C/C(CN1C(=O)c2ccccc2C1=O)=N\NS(=O)(=O)c1cccc([N+](=O)[O-])c1
> 100 µM (inactive)

Please give the measured GI50 for this compound: O=c1c2ccccc2[nH]c2c(Cl)cc(Cl)c(NC3CCCCC3)c12
19.4 µM (inactive)

Please give the measured GI50 for this compound: N#Cc1nc(C(O)c2ccccc2)oc1N (stereo not drawn)
> 100 µM (inactive)

Please give the measured GI50 for this compound: Oc1ccc(-c2nc3cc(C(F)(F)F)ccc3n2CC2CCCN3CCCCC23)cc1 (stereo not drawn)
14.9 µM (inactive)

Please give the measured GI50 for this compound: CCOC(=O)CCC(NC(=O)OCc1ccccc1)C(=O)NNC(=O)OC(C)(C)C (stereo not drawn)
> 100 µM (inactive)

Please give the measured GI50 for this compound: Nc1nc(O)c2[nH]cnc2[n+]1[O-]
> 100 µM (inactive)

Please give the measured GI50 for this compound: O=c1c2cccnc2[s+]([O-])n1Cc1ccccc1 (stereo not drawn)
> 100 µM (inactive)

Please give the measured GI50 for this compound: CC(C)C1=C(O)C(=O)C2=C(C1=O)C(OC=O)C(O)C1C(C)(C)CCCC21C (stereo not drawn)
14.8 µM (inactive)

Please give the measured GI50 for this compound: O=C(NNCc1ccccc1O)c1ccccc1O
31.4 µM (inactive)

Please give the measured GI50 for this compound: Cn1/c(=N\c2ccc(Cl)cc2)sc2ccccc21
55.2 µM (inactive)

Please give the measured GI50 for this compound: CC1(C)CC(c2c[nH]c3ccccc23)=CC2=Nc3ccccc3C21O (stereo not drawn)
> 100 µM (inactive)

====

system: KM12; test: NCI tumour cell line growth inhibition, 48 h
Active and inactive are the calls of the source. Cut-off read from the data, not from the text of the source: active = GI50 up to about 1.1 µM and inactive = higher.
Pick one: active, inactive

# lookup: test call for COc1cc2oc(-c3ccc4c(c3)OCO4)c(OC)c(=O)c2c(O)c1OC
inactive

# lookup: test call for COc1cc(C(=O)Nc2nnc(S(N)(=O)=O)s2)cc(OC)c1OC
inactive

# lookup: test call for O=C1OC(=O)C23CSCC12C1C=CC3O1 (centres undefined)
inactive

# lookup: test call for COc1cc(Nc2nc3ccccc3nc2C(=O)O)cc(OC)c1OC
inactive

# lookup: test call for CCOc1ccccc1/N=C\c1c2ccccc2cc2ccccc12
inactive

# lookup: test call for COc1ccc(/C=N\N2CC(=O)N3C4C=CC(CC4)N3C2=O)cc1 (centres undefined)
inactive

# lookup: test call for COc1cccc(/C(CC(O)(C(F)(F)F)C(F)(F)F)=N\N(C)C)c1
inactive

# lookup: test call for O=C1O[C@H](c2ccccc2)[C@@H]2CC3(CCN12)OCCO3
inactive

# lookup: test call for CCOc1ccc(C2Oc3c(cccc3OC)C=C2[N+](=O)[O-])cc1OCC (centres undefined)
inactive

# lookup: test call for Nc1nc(Cl)cc(NCCCCCCCCNc2cc(Cl)nc(N)n2)n1
inactive

# lookup: test call for COC(=O)C1=C(O)CCCC(CCC(C)=O)=C1
inactive

# lookup: test call for COC(=O)CCn1cnc2c(SC)ncnc21
inactive

# lookup: test call for NC1=C(O)c2cccc3cccc(c23)C1=O
inactive

# lookup: test call for N#CC1CC2(C1)OCCS2 (centres undefined)
inactive

# lookup: test call for O=c1cc(O)c1=O
inactive

# lookup: test call for Cc1nn(-c2ccccc2)c2c1N=C(C(=O)O)CC(c1ccccc1)=N2
inactive

# lookup: test call for Cc1cc2c(cc1C)[n+]([O-])c(C(=O)C/C(=N/NC(=S)NN)C(=O)Nc1cccc(C(F)(F)F)c1)c[n+]2[O-]
inactive

# lookup: test call for C/C(=N/NC(=S)Nc1cccc(Cl)c1)c1ccccn1
active

# lookup: test call for N#CC(C#N)=CSc1ccccc1
inactive

# lookup: test call for CC1(/C=C/CCSc2ccccc2)CC(=O)C2CC1C2(C)C (centres undefined)
inactive

# lookup: test call for COc1cc2nc(Cl)nc(NS(=O)(=O)c3cc4ccccc4s3)c2cc1OC
inactive

# lookup: test call for O=C(O)C(NCc1ccccc1)C(NCc1ccccc1)C(=O)O (centres undefined)
inactive

# lookup: test call for O=C1/C(=C/c2cccs2)N=C(c2ccccc2)N1c1nc2ccccc2s1
inactive

# lookup: test call for CCc1c(C)c(C#N)c(=S)n(C2OC(COC(C)=O)C(OC(C)=O)C(OC(C)=O)C2OC(C)=O)c1C (centres undefined)
inactive

====

system: SNB-19; experiment: NCI tumour cell line growth inhibition, 48 h
Activity calls are given as the source filed them. Cut-off read from the data, not from the text of the source: active = GI50 up to about 1.1 µM and inactive = higher.
Pick one: class 1 (active), class 0 (inactive)

# lookup: test call for C=C1C(=O)OC2C1CC(O)/C(C)=C\CCC1(C)OC21 (stereo not drawn)
class 0

# lookup: test call for Cc1[nH]n(-c2ccccc2)c(=O)c1C(N(CCc1ccccc1)C1=NCC(C)S1)(C(F)(F)F)C(F)(F)F (stereo not drawn)
class 0

# lookup: test call for COc1cccc(C2c3cc4c(cc3OC(N3CCOCC3)C2C)OCO4)c1 (stereo not drawn)
class 0

# lookup: test call for Brc1cc(CCOC2CCCCO2)c(-c2sccc2CCOC2CCCCO2)s1 (stereo not drawn)
class 0

# lookup: test call for S=C=NCCc1ccccc1 [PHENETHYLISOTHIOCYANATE]
class 0

# lookup: test call for CCOC(=O)C(C)c1nc2c(Cl)c3ncccc3cc2[nH]c1=O (stereo not drawn)
class 0

# lookup: test call for CC1CC(c2ccccc2)=Nc2ccccc2S1 (stereo not drawn)
class 0

# lookup: test call for CC#CCCCC1(C)CCCNC1=S (stereo not drawn)
class 0

# lookup: test call for COc1ccc2c(c1)OC(c1ccccc1O)CC2=O (stereo not drawn)
class 0

# lookup: test call for C/C(=N/NC(=S)Nc1cccc(Cl)c1)c1ccccn1
class 0

# lookup: test call for O=C1OC(OC/C(Br)=C(/Br)COC2OC(=O)C(Cl)=C2Cl)C(Cl)=C1Cl (stereo not drawn)
class 0

# lookup: test call for C[C@]12CC[C@H](O)C[C@H]1CC[C@@H]1[C@@H]2CC[C@]2(C)[C@@H](C3=CC(=O)OC3)[C@@H](O)C[C@]12O
class 0

# lookup: test call for O=C(N/N=C/c1ccccc1)c1cccc2nc3ccccc3nc12
class 0

# lookup: test call for NS(=O)(=O)c1ccc(NC2=CC(=O)C(=O)c3ccccc32)cc1
class 0

# lookup: test call for Clc1cc2nnn(C3CCCCO3)c2cc1Cl (stereo not drawn)
class 0

# lookup: test call for CCCCCCCCOCC(O)COC (stereo not drawn)
class 0

# lookup: test call for Cc1cc2nc(-c3c(F)cccc3F)n(Cc3c(F)cccc3F)c2cc1C
class 0

# lookup: test call for CC(C)CCNc1ncnc2[nH]ncc12
class 0

# lookup: test call for CC(C)SC1SCC2C(=O)N(C)C3(CC3C)C(=O)OCC(NC(=O)c3nc4ccccc4cc3O)C(=O)NC(C)C(=O)N(C)C1C(=O)N(C)C1(CC1C)C(=O)OCC(NC(=O)c1nc3ccccc3cc1O)C(=O)NC(C)C(=O)N2C (stereo not drawn)
class 1

# lookup: test call for O=[N+]([O-])c1ccc(/C=C\c2ccc3c(c2)OCO3)c([N+](=O)[O-])c1
class 0

# lookup: test call for O=C1C(Cl)C2(CC(/C=C/c3cccs3)=NN2c2cccc(S(=O)(=O)O)c2)N1c1nc2ccccc2s1 (stereo not drawn)
class 0

# lookup: test call for Cc1ccc2c(O)cc(-c3cc4ccccc4s3)nc2n1
class 0

# lookup: test call for N#CC(C#N)=CSc1ccccc1
class 0

# lookup: test call for CCOC(=O)C1=NOC2(C=C(Br)C(=O)C(Br)=C2)C1
class 0

# lookup: test call for S=C(NN=C1NCCCN1)Nc1ccccc1
class 0

# lookup: test call for CC(C)=CCC[C@@H](C)C1=C(O)C(=O)C(C)=C(Nc2ccccc2)C1=O
class 0

# lookup: test call for O=c1cccc(Cl)[nH]1
class 0

# lookup: test call for CCOC(=O)c1c(NCc2ccccc2)n(-c2ccccc2)c(=S)n(-c2ccccc2)c1=O
class 0

# lookup: test call for CNC(Cc1ccccc1)c1cccc(OC)c1O (stereo not drawn)
class 0

# lookup: test call for NC(=O)OCC(COc1ccc(Cl)cc1)OC(=O)c1cc([N+](=O)[O-])cc([N+](=O)[O-])c1 (stereo not drawn)
class 0

# lookup: test call for Nc1nc2c(ncn2CC(CO)CC(c2ccccc2)P(=O)(O)O)c(=O)[nH]1 (stereo not drawn)
class 0

# lookup: test call for O=C(NC(Cc1ccc(Cl)cc1)C(=O)O)c1ccc(I)cc1 (stereo not drawn)
class 0

# lookup: test call for CCOC(=O)C1C(=O)CC1(C)C (stereo not drawn)
class 0

# lookup: test call for Oc1[nH]c(NCc2ccc(Cl)cc2)nc2ncnc1-2
class 0

# lookup: test call for N#Cc1nsnc1-c1nc(-c2nsnc2C#N)nc(-c2nsnc2C#N)n1
class 0

# lookup: test call for COc1cc(C)c(CC/C(C)=C/Cc2cc(O)ccc2O)c(C)c1C [PANICEIN A HYDROQUINONE]
class 0

# lookup: test call for CN(C)CCCNC(=S)S
class 0

# lookup: test call for NCC1Nc2ccccc2[C@@H](O)C1O (stereo partly drawn)
class 0

# lookup: test call for O=C1C2C=CC(n3[nH]c(=O)n(Cc4ccccc4)c3=O)CC2C(=O)N1c1cccc(Cl)c1 (stereo not drawn)
class 0

# lookup: test call for OCc1cc2c(cn1)[nH]c1ccc(NCc3ccccc3)cc12
class 0

# lookup: test call for C[C@@H]1C[C@@H]([C@H](O)CC2CC(=O)NC(=O)C2)C(=O)[C@@H](C)C1 [CYCLOHEXIMIDE]
class 1

# lookup: test call for CSC1=Nc2ccccc2-c2nc(-c3ccccc3)cc(-c3ccccc3)c2C1
class 0

# lookup: test call for Cc1c(OC(C)C(=O)O)ccc2c(-c3ccccc3)cc(=O)oc12 (stereo not drawn)
class 0
